IC50 for assorted compounds
testedTarget: BTK (Homo sapiens (Human), UniProt Q06187)
Sequence (Q06187 whole entry, species assumed): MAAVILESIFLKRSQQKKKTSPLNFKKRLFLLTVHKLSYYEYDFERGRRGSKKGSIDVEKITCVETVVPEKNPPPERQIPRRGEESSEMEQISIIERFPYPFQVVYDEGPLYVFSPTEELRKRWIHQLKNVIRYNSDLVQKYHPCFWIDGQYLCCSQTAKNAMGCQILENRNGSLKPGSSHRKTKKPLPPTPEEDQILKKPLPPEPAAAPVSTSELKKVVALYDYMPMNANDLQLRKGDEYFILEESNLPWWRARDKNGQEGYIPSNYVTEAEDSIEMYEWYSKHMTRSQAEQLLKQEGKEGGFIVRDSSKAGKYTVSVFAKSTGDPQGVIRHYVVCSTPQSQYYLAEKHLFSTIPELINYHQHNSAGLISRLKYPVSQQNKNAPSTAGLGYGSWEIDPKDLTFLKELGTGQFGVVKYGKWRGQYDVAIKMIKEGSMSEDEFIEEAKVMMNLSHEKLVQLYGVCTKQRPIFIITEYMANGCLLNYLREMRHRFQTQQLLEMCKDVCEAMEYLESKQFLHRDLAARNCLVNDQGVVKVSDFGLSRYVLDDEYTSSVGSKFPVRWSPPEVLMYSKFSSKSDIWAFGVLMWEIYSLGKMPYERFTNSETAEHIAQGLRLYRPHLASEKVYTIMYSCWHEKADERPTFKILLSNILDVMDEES
experimentSummary: Btk kinase assay (HTRF)
Type: biochemical
recordedConditions: [ATP]=80 μM, BTK=3.4 nM; read-out: BTK Inhibition

Some solved entries appear below for comparison.
compound: C=CC(=O)Nc1cccc(-n2c(=O)n(-c3cccc(Oc4ccccc4OC)c3)c3cnccc32)c1
metricName: IC50
result: 10 to 100 nM

compound: C=CC(=O)N1CC[C@@H](n2c(=O)n(-c3ccc(Oc4cccc(OC(C)C)c4)cc3)c3cnccc32)C1
metricName: IC50
result: ≤ 10 nM

compound: C=CC(=O)N1CCCC1Cn1c(=O)n(-c2ccc(Oc3ccccc3)cc2)c2cnccc21 (stereo not drawn) [Example 178]
metricName: IC50
result: 10 to 100 nM

compound: C=CC(=O)N1CCC(n2c(=O)n(-c3ccc(Oc4ccccc4)c(C)c3)c3cnccc32)C1 (stereo not drawn)
metricName: IC50
result: 10 to 100 nM

compound: C=CC(=O)Nc1cccc(-n2c(=O)n(-c3ccc(C4CC4)cc3)c3cnccc32)c1
metricName: IC50
result: 10 to 100 nM

compound: CC#CC(=O)N1CC[C@@H](n2c(=O)n(-c3ccc(Oc4ccccc4)cc3)c3cnccc32)C1
metricName: IC50
result: ≥ 10000 nM

compound: C=CC(=O)N1CC[C@H](n2c(=O)n(-c3ccc(Oc4ccccc4)cc3)c3/c(=N/O)[nH]cnc32)C1
metricName: IC50
result: 100 to 1000 nM

compound: C=CC(=O)Nc1cccc(-n2c(=O)n(-c3ccc(Oc4cccc(Cl)c4)c(F)c3)c3cnccc32)c1
metricName: IC50
result: 100 to 1000 nM

compound: C=CC(=O)Nc1cccc(-n2c(=O)n(-c3ccc(OCc4ccccc4F)cc3)c3cnccc32)c1
metricName: IC50
result: 100 to 1000 nM

compound: C=CC(=O)Nc1cccc(-n2c(=O)n(-c3ccc(-c4ccc(C)cc4)cc3)c3cnccc32)c1
metricName: IC50
result: 1000 to 10000 nM

Query: Kindly state the measured IC50 obtained for C=CC(=O)N1CC[C@@H](n2c(=O)n(-c3ccc(Oc4ccc(F)cc4)cc3)c3cnccc32)C1 with BTK (Homo sapiens (Human), UniProt Q06187).
Response: 100 to 1000 nM

Query: Ok, now C=CC(=O)N1CC[C@@H](n2c(=O)n(-c3ccc(Oc4ccccc4C)cc3)c3cnccc32)C1
Response: 10 to 100 nM

Query: C=CC(=O)Nc1cccc(-n2c(=O)n(-c3ccc(OCc4ccc(F)cc4)cc3)c3cnccc32)c1 ?
Response: 10 to 100 nM

Query: Another compound to check: C=CC(=O)Nc1cccc(-n2c(=O)n(-c3ccc(OCc4cc(F)ccc4F)cc3)c3cnccc32)c1
Response: 100 to 1000 nM

Query: Follow-up item: C=CC(=O)N1CCC(n2c(=O)n(-c3ccc(Oc4cccc(C(F)(F)F)c4)c(Cl)c3)c3cnccc32)C1 (stereo not drawn)
Response: 10 to 100 nM

* * *

Recorded IC50 for the following compounds
testedTarget: BTK (Homo sapiens (Human))
experimentSummary: Btk kinase assay (HTRF)
Type: biochemical
recordedConditions: [ATP]=80 μM, BTK=3.4 nM; read-out: BTK Inhibition

compound: C=CC(=O)N1CCC[C@@H](n2c(=O)n(-c3ccc(Oc4ccccc4)c(Cl)c3)c3cnccc32)C1 [Example 107]
result: 10 to 100 nM

compound: C=CC(=O)Nc1cccc(-n2c(=O)n(-c3cccc(Oc4ccccc4)c3)c3cnccc32)c1 [Example 7]
result: 10 to 100 nM

compound: C=CC(=O)N1CC[C@@H](n2c(=O)n(-c3ccc(OCc4ccc(Cl)c(Cl)c4)c(Cl)c3)c3cnccc32)C1 [Example 215]
result: 1000 to 10000 nM

Query: Consider the compound C=CC(=O)Nc1cccc(-n2c(=O)n(-c3ccc(Oc4cccc(OC(F)(F)F)c4)cc3)c3cnccc32)c1 [Example 70] and give its measured IC50.
Response: 1000 to 10000 nM
